Reported IC50 values for the following compounds.
Assay: Inhibition of HIV-1 His6-tagged integrase-recombinant flag-tagged LEDGF/p75 interaction 1 hr by alphascreen assay
readout-type: IC50 (µM)

• O=C(O)/C(O)=C/C(=O)c1c[nH]c2cccc(O)c12 = 35
• Cc1cccc(C)c1Cn1cc(C(=O)C2=C(O)C(=O)OC2)c2c(O)cccc21 = 7.5
• Cc1cccc(Cn2cc(C(=O)C3=C(O)C(=O)OC3)c3c(O)cccc32)c1 = 53.3
• Cc1ccc(Cn2cc(C(=O)/C=C(\O)C(=O)O)c3c(O)cccc32)cc1 = 68
• Cc1ccc(Cn2cc(C(=O)C3=C(O)C(=O)OC3)c3c(O)cccc32)cc1 = 8.7
• Cc1cc(C)cc(Cn2cc(C(=O)/C=C(\O)C(=O)O)c3c(O)cccc32)c1 = 3.5
• Cc1cc(C)cc(Cn2cc(C(=O)C3=C(O)C(=O)OC3)c3c(O)cccc32)c1 = 123
• Cc1cccc(Cn2cc(C(=O)/C=C(\O)C(=O)O)c3c(O)cccc32)c1C = 28.5
• Cc1ccc(Cn2cc(C(=O)C3=C(O)C(=O)OC3)c3c(O)cccc32)c(C)c1 = 11.7
• O=C(O)/C(O)=C/C(=O)c1cn(Cc2ccc(F)cc2)c2cccc(O)c12 = 76
• CCOC(=O)/C(O)=C/C(=O)c1cn(Cc2ccc(C)cc2)c2cccc(O)c12 = 171
